assay target: UniProt V5T759
protocol: biochemical
Assay type: binding
stated conditions: ligand concentration 6 (unit not given), replicate column 2 of 3
readout label: Fluorescence competitive binding assay, OBP2 (raw fluorescence reading)
Form rule: numeric answer, no unit written next to it.

Reference set (3 entries):
C=C(C)C1CC=C(C)CC1 (single isomer, unassigned; (+)) [(+)-limonene]
17846
CCCCCC=O
18306
CCCCCCCCCCCCCCCCCCC
23625

Let us move to another entry and its Fluorescence competitive binding assay, OBP2 (raw fluorescence reading).
Fluorescence competitive binding assay, OBP2 (raw fluorescence reading) reading for `C=C1CC/C=C(\C)CC[C@@H]2[C@@H]1CC2(C)C` : 12794

###

assay target: SfurOBP2 (Sogatella furcifera, UniProt V5T759)
Sequence (V5T759 entry or part of it): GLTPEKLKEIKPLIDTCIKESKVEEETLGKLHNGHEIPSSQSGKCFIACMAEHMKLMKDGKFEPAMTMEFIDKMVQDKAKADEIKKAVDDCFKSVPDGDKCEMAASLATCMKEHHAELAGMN
protocol: biochemical
Type: binding
stated conditions: ligand concentration 16 (unit not given), replicate column 1 of 3
Description: Thirty-six rice odorants ([He et al., 2014]; [Wang et al., 2017]) and 1-N-phenyl-naphthylamine (1-NPN) were purchased from Sigma-Aldrich (St Louis, MO, USA). […] Fluorescence competitive binding assays were performed on Tecan Spark 10M (Tecan Group Ltd., Männedorf, Switzerland) with the F96 Black ELIAS Plate (Sangon) ([Khuhro et al., 2017]; [Liu et al., 2017]). The solutions were excited at 337 nm and emission spectra were recorded between 390 and 490 nm. […]
readout label: Fluorescence competitive binding assay, OBP2 (raw fluorescence reading)
Returns: the value as a bare number; no unit string appended.

Below: 3 compounds and their reported Fluorescence competitive binding assay, OBP2 (raw fluorescence reading).
OC1CCCCC1
15306
C/C(=C\CO)CCC[C@H](C)CCC[C@H](C)CCCC(C)C
18977
O=C(c1ccccc1)c1ccccc1
11787

get_value(item= `C[C@@H]1CC[C@H]2C(C)(C)[C@H]3C[C@@]12CC[C@@]3(C)O` , readout=Fluorescence competitive binding assay, OBP2 (raw fluorescence reading)) returns 22837

Measured Fluorescence competitive binding assay, OBP2 (raw fluorescence reading) of `CCCCCCCCCCCCCC` : 20438

Fluorescence competitive binding assay, OBP2 (raw fluorescence reading) for `CCCCCCCCCCOCCCCCCCCCC` is 41133

The compound `CC1=CC[C@@H](C(C)(C)O)CC1` showed Fluorescence competitive binding assay, OBP2 (raw fluorescence reading) equal to 13073

Note to self: Fluorescence competitive binding assay, OBP2 (raw fluorescence reading) recorded for `CCCCCCCCCCC` was 12291

Note to self: Fluorescence competitive binding assay, OBP2 (raw fluorescence reading) recorded for `C=C/C(C)=C/C/C=C(\C)CCC=C(C)C` was 17244

Entry `C=C1CC/C=C(\C)CC[C@@H]2[C@@H]1CC2(C)C` ; Fluorescence competitive binding assay, OBP2 (raw fluorescence reading) = 16569

// recorded Fluorescence competitive binding assay, OBP2 (raw fluorescence reading) for `CCCCCCCCCCCCCCCC` : 10605

###

Items are presented alongside their recorded Fluorescence competitive binding assay, OBP2 (raw fluorescence reading).
assay target: SfurOBP2 (Sogatella furcifera, UniProt V5T759)
protocol: biochemical
Type: binding
stated conditions: ligand concentration 8 (unit not given), replicate column 1 of 3

// solved cases for Fluorescence competitive binding assay, OBP2 (raw fluorescence reading) follow
CCCCCCCCCCOCCCCCCCCCC [didecyl ether]
33082
CCCCCCCC [n-octane]
15494
CCC/C=C/CO [(E)-2-hexenol]
15464
CCCCCCCCCCCCC=O [tridecanal]
15100

// moving on: another record for Fluorescence competitive binding assay, OBP2 (raw fluorescence reading)
Quick note, Fluorescence competitive binding assay, OBP2 (raw fluorescence reading) for COC(=O)c1ccccc1 [benzoic acid methylester] landed at 18016

###

assay target: SfurOBP2 (Sogatella furcifera)
protocol: biochemical
Assay type: binding
stated conditions: ligand concentration 18 (unit not given), replicate column 3 of 3
readout label: Fluorescence competitive binding assay, OBP2 (raw fluorescence reading)
Lab note: record just the number, no unit beside it.

Cc1cc(C(C)(C)C)c(O)c(C(C)(C)C)c1 [BHT(2,6-di-tert-butyl-4-methylphenol)]
11202

Fluorescence competitive binding assay, OBP2 (raw fluorescence reading) reported for this molecule C=CC(C)(O)CCC=C(C)CCC=C(C)C (mixture of isomers) [nerolidol] : 11251

GET /value?item= CCC/C=C/CO [(E)-2-hexenol] &field=Fluorescence competitive binding assay, OBP2 (raw fluorescence reading) returns 11503

Entry CCCCCCCC=O [octanal] ; Fluorescence competitive binding assay, OBP2 (raw fluorescence reading) = 18464

Fluorescence competitive binding assay, OBP2 (raw fluorescence reading) reported for this molecule C=C(C)C1CC=C(C)CC1 (single isomer, unassigned; (+)) [(+)-limonene] : 13110

###

System: S. furcifera adults
protocol: Y-tube olfactometer behavioral trials
Format: in vivo, Sogatella furcifera
stated conditions: odorant 50 µL/L vs hexane; adults
The following compounds are shown together with reported number of insects choosing hexane arm values.
# print the numeric value only

Example results:
O=Cc1ccccc1
10
C=C1CC/C=C(\C)CC[C@@H]2[C@@H]1CC2(C)C
15
CC1=CC[C@@H](C(C)(C)O)CC1
14
CCCCCCCCC=O
12

Form: item `OC1CCCCC1` ; test system S. furcifera adults; number of insects choosing hexane arm: 12

###

Let's look at some compounds and their measured Fluorescence intensity, fluorescence competitive binding assay, OBP11.
assay target: SfurOBP11 (Sogatella furcifera, UniProt V5T6E3)
Sequence (V5T6E3 entry or part of it): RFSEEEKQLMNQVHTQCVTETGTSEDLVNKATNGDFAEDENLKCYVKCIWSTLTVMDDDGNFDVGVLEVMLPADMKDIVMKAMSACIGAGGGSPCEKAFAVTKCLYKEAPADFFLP
protocol: biochemical
Assay type: binding
stated conditions: ligand concentration 16, replicate 2
Form rule: numeric answer, no unit written next to it.

So, Cc1cc(C(C)(C)C)c(O)c(C(C)(C)C)c1 [BHT(2,6-di-tert-butyl-4-methylphenol)] ? Its Fluorescence intensity, fluorescence competitive binding assay, OBP11 was 15985

Fluorescence intensity, fluorescence competitive binding assay, OBP11 in this record for CCCCCCCC [n-octane] : 20535

Given item CCCCCC(C)=O [2-heptanone] , the value recorded as its Fluorescence intensity, fluorescence competitive binding assay, OBP11 is 20307

The reported Fluorescence intensity, fluorescence competitive binding assay, OBP11 of the compound CCCCCCCCCCCCCCCCCCC [n-nonadecane] was 30154

# compound CCCCCCCCCCC [n-hendecane] ; its Fluorescence intensity, fluorescence competitive binding assay, OBP11 = 27774

// Fluorescence intensity, fluorescence competitive binding assay, OBP11 value for CCCCCCCCC=O [nonanal] : 23147

###

Consider the following compounds and their measured Fluorescence competitive binding assay, OBP2 (raw fluorescence reading) readings.
assay target: UniProt:V5T759
protocol: biochemical
Assay type: binding
stated conditions: ligand concentration 8 (unit not given), replicate column 2 of 3

C=C(C)C1CC=C(C)CC1 (single isomer, unassigned; (+)) [(+)-limonene]
18323
CCCCCCCCCCCCCCCC
13401
CCCCCCCCCCCCC=O
16066
C=C1CC/C=C(\C)CC[C@@H]2[C@@H]1CC2(C)C
13647
OC1CCCCC1
16921
CCC/C=C/CO [(E)-2-hexenol]
15780
O=Cc1ccccc1
14622
CCCCCCCCCCCCCCCCCCC
24832

CCCCCCCCCCCCCCCC(=O)OC [MH(methyl hexadecanoate)] has a reported Fluorescence competitive binding assay, OBP2 (raw fluorescence reading) of 44063

Briefly, Fluorescence competitive binding assay, OBP2 (raw fluorescence reading) measured for `CCCCCCCCCCCCCCCCCC` : 21135

###

assay target: SfurOBP11 (Sogatella furcifera, UniProt V5T6E3)
protocol: biochemical
Assay type: binding
stated conditions: ligand concentration 6, replicate 3
Property: Fluorescence intensity, fluorescence competitive binding assay, OBP11; scope: individual compounds

Cc1cc(C(C)(C)C)c(O)c(C(C)(C)C)c1 [BHT(2,6-di-tert-butyl-4-methylphenol)]
21862

Reported Fluorescence intensity, fluorescence competitive binding assay, OBP11 for C[C@@H]1CC[C@H]2C(C)(C)[C@H]3C[C@@]12CC[C@@]3(C)O [cedrol] was 36785

###

assay target: SfurOBP2 (Sogatella furcifera)
protocol: biochemical
Format: binding
stated conditions: ligand concentration 16 (unit not given), replicate column 2 of 3
Procedure: Thirty-six rice odorants ([He et al., 2014]; [Wang et al., 2017]) and 1-N-phenyl-naphthylamine (1-NPN) were purchased from Sigma-Aldrich (St Louis, MO, USA). […] Fluorescence competitive binding assays were performed on Tecan Spark 10M (Tecan Group Ltd., Männedorf, Switzerland) with the F96 Black ELIAS Plate (Sangon) ([Khuhro et al., 2017]; [Liu et al., 2017]). The solutions were excited at 337 nm and emission spectra were recorded between 390 and 490 nm. […]
readout label: Fluorescence competitive binding assay, OBP2 (raw fluorescence reading)

// solved cases for Fluorescence competitive binding assay, OBP2 (raw fluorescence reading) follow
CCCCCCCCCCCCCCCCCC
19708
CCCCCCCCC=O
17144
CCCCCCCCCCCCCC
19246
C=CC(C)(O)CCC=C(C)C (stereo not drawn)
14612
CCCCCCCCCCCCO
12749

Consider `CCCCCC(C)=O` . Its measured Fluorescence competitive binding assay, OBP2 (raw fluorescence reading) is 13653

Consider `CCCCCCCCCCOCCCCCCCCCC` . Its measured Fluorescence competitive binding assay, OBP2 (raw fluorescence reading) is 50168

Value of Fluorescence competitive binding assay, OBP2 (raw fluorescence reading) reported for the compound CCC/C=C/CO [(E)-2-hexenol] is 12355

// C=CC(C)(O)CCC=C(C)CCC=C(C)C (mixture of isomers) : Fluorescence competitive binding assay, OBP2 (raw fluorescence reading) value = 11256

Fluorescence competitive binding assay, OBP2 (raw fluorescence reading) reported for this compound `CCCCCCCCCCCCC=O` : 16512

Query `C/C(=C\CO)CCC[C@H](C)CCC[C@H](C)CCCC(C)C` yields Fluorescence competitive binding assay, OBP2 (raw fluorescence reading) of 19385

The value of Fluorescence competitive binding assay, OBP2 (raw fluorescence reading) measured for the compound `Cc1ccc(C(C)C)cc1` turned out to be 13456
